tested on: nauplius stage larvae; assay: Toxicity Assay for Nauplius Larvae (naupliar toxicity); details: lethal dose killing 50 percent of naupliar stage larvae; 100 kDa-filtered seawater, 28° C., approx. 15 h light and 9 h darkness; 1440 min
For each record, write down the corresponding Naupliar Toxicity (LD50).
Give bare numbers, in ng/L.

Recorded results for 2 compounds are shown here.
INSERT INTO results (compound, unitstext, quantitativereadout) VALUES
  ('CC(=O)O[C@H]1[C@H]2O[C@]23[C@@H]2CC[C@]4(O)C[C@@H](O)CC[C@]4(C)[C@H]2CC[C@]3(C)[C@H]1c1ccc(=O)oc1', 'ng/L', 837),
  ('C[C@]12CC[C@H](O)C[C@H]1CC[C@@H]1[C@@H]2CC[C@]2(C)[C@@H](c3ccc(=O)oc3)CC[C@]12O [Bufalin, 3,14-dihydroxybufa-20,22 dienolide]', 'ng/L', 27);

Proceed to the following item.
Tell me measured Naupliar Toxicity (LD50) for CC(=O)O[C@H]1[C@H]2O[C@]23[C@@H]2CC[C@@H]4C[C@@H](O)CC[C@]4(C)[C@H]2CC[C@]3(C)[C@H]1c1ccc(=O)oc1 please.
37
